biological target: Inward rectifier potassium channel 2 (Mus musculus); assay: blocks the mouse Kir2.1 inward-rectifier potassium channel (AID 1672); settings: HEK293-Kir2.1, FluxOR thallium flux fluorescence; at 10 µM; stronger effect = lower value;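 note: channel flux triggered by added potassium and thallium sulfate stimulus; B-score of peak minus minimum fluorescence over baseline after thallium stimulus; more negative B-score means stronger Kir2.1 block with less thallium influx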
Hit rate of the full screen: of about 310,000 compounds, about 2,600 (0.84%) were called active. Many of the other results were omitted from the sample, so actives are more common in it than they were.
Strictly below -0.05 in B-score: rule met. Otherwise: rule not met.

[[record]]
molecule = "C=CCNC(=O)COc1coc(CN2CCN(Cc3ccccc3)CC2)cc1=O"
target_entity = "Inward rectifier potassium channel 2 (Mus musculus)"
assigned_class = "rule not met"

[[record]]
molecule = "Cc1ccn2c(=O)nc(SCC(=O)NCc3ccc4c(c3)OCO4)nc2c1"
target_entity = "Inward rectifier potassium channel 2 (Mus musculus)"
assigned_class = "rule met"

[[record]]
molecule = "Cc1nnc(SCC(=O)N2CCOCC2)[nH]c1=O"
target_entity = "Inward rectifier potassium channel 2 (Mus musculus)"
assigned_class = "rule met"

[[record]]
molecule = "COc1ccccc1C(=O)NC(CCSC)C(=O)N1CCN(C/C=C/c2ccccc2)CC1 (centres undefined)"
target_entity = "Inward rectifier potassium channel 2 (Mus musculus)"
assigned_class = "rule met"

[[record]]
molecule = "COc1ccc(CNC(=O)C2CCCC2)cc1"
target_entity = "Inward rectifier potassium channel 2 (Mus musculus)"
assigned_class = "rule not met"

[[record]]
molecule = "Cc1ccc(-c2nc(CSCC(=O)NC3CCN(Cc4ccccc4)CC3)c(C)o2)cc1"
target_entity = "Inward rectifier potassium channel 2 (Mus musculus)"
assigned_class = "rule met"

[[record]]
molecule = "COc1ccccc1NC(=O)COC(=O)c1ccccc1SCC(=O)N1CCCC1"
target_entity = "Inward rectifier potassium channel 2 (Mus musculus)"
assigned_class = "rule not met"

[[record]]
molecule = "Cc1ccc(NC(=O)CSc2nc(=O)n(CCN(C)C)c3c2CCCC3)c(C)c1"
target_entity = "Inward rectifier potassium channel 2 (Mus musculus)"
assigned_class = "rule met"

[[record]]
molecule = "Cc1cc(C(=O)CSc2nc(N)cc(=O)[nH]2)c(C)n1CCc1ccc(Cl)cc1"
target_entity = "Inward rectifier potassium channel 2 (Mus musculus)"
assigned_class = "rule met"

[[record]]
molecule = "Cc1ccc(-c2cc(C(=O)NC3CCN(Cc4ccccc4)CC3)c3ccccc3n2)cc1"
target_entity = "Inward rectifier potassium channel 2 (Mus musculus)"
assigned_class = "rule not met"

[[record]]
molecule = "Nc1ccccc1/C=N\\N=C/c1ccccc1N"
target_entity = "Inward rectifier potassium channel 2 (Mus musculus)"
assigned_class = "rule met"

[[record]]
molecule = "c1ccc(Cc2ccc(OCCn3ccnc3)cc2)cc1"
target_entity = "Inward rectifier potassium channel 2 (Mus musculus)"
assigned_class = "rule met"

[[record]]
molecule = "CC1CN(C(=O)CCC(=O)NC2CCN(Cc3ccccc3)CC2)c2ccccc2O1 (centres undefined)"
target_entity = "Inward rectifier potassium channel 2 (Mus musculus)"
assigned_class = "rule not met"

[[record]]
molecule = "CCCCN1C(N)=NC[C@@H]1Cc1ccccc1"
target_entity = "Inward rectifier potassium channel 2 (Mus musculus)"
assigned_class = "rule not met"

[[record]]
molecule = "COc1ccc(C(CCNCc2ccccc2F)c2ccc(F)cc2)cc1 (centres undefined)"
target_entity = "Inward rectifier potassium channel 2 (Mus musculus)"
assigned_class = "rule met"

[[record]]
molecule = "O=C(NC1CCN(Cc2ccccc2)CC1)c1c(F)cccc1F"
target_entity = "Inward rectifier potassium channel 2 (Mus musculus)"
assigned_class = "rule not met"

[[record]]
molecule = "Cc1ccc(NC(=S)N(CCCN2CCC(C)CC2)Cc2ccco2)cc1"
target_entity = "Inward rectifier potassium channel 2 (Mus musculus)"
assigned_class = "rule met"

[[record]]
molecule = "C=CCNC(=S)/N=c1/ccccn1Cc1ccccc1"
target_entity = "Inward rectifier potassium channel 2 (Mus musculus)"
assigned_class = "rule met"

[[record]]
molecule = "Nc1ccc(C(=O)N2CCN(S(=O)(=O)c3ccc(Cl)cc3)CC2)cc1[N+](=O)[O-]"
target_entity = "Inward rectifier potassium channel 2 (Mus musculus)"
assigned_class = "rule not met"

[[record]]
molecule = "COc1ccc(CC(=O)NC(C)CCc2ccccc2)cc1 (centres undefined)"
target_entity = "Inward rectifier potassium channel 2 (Mus musculus)"
assigned_class = "rule met"

[[record]]
molecule = "CCOC(=O)c1c(C)[nH]c(C(=O)OCC(=O)N2CCCC2=O)c1C"
target_entity = "Inward rectifier potassium channel 2 (Mus musculus)"
assigned_class = "rule met"

[[record]]
molecule = "C=CCc1cc(C)ccc1OCCCn1ccnc1"
target_entity = "Inward rectifier potassium channel 2 (Mus musculus)"
assigned_class = "rule not met"

[[record]]
molecule = "COc1ccc(CCNc2cc(N3CCN(C(=O)c4ccccc4OC)CC3)ccc2[N+](=O)[O-])cc1OC"
target_entity = "Inward rectifier potassium channel 2 (Mus musculus)"
assigned_class = "rule met"

[[record]]
molecule = "CCCCCCn1c(CN2CCCCC2)nc2c1c(=O)n(C)c(=O)n2C"
target_entity = "Inward rectifier potassium channel 2 (Mus musculus)"
assigned_class = "rule met"

[[record]]
molecule = "Cc1ccc(S(=O)(=O)NCCC(=O)NC2CCN(Cc3ccccc3)CC2)cc1"
target_entity = "Inward rectifier potassium channel 2 (Mus musculus)"
assigned_class = "rule met"

[[record]]
molecule = "O=C(Nc1cc(Cl)ccc1N1CCOCC1)c1ccc(N2CCCC2=O)cc1"
target_entity = "Inward rectifier potassium channel 2 (Mus musculus)"
assigned_class = "rule met"

[[record]]
molecule = "CN(C)CCOc1ccc(Cl)cc1C(C)(C)C"
target_entity = "Inward rectifier potassium channel 2 (Mus musculus)"
assigned_class = "rule met"

[[record]]
molecule = "COc1ccccc1-c1n[nH]c2c1[C@H](C)CC[C@H]2C(C)C"
target_entity = "Inward rectifier potassium channel 2 (Mus musculus)"
assigned_class = "rule met"

[[record]]
molecule = "Cc1ccc(NC(=S)N(CCCN2CCCC2)Cc2cccn2Cc2ccc(Cl)cc2)cc1"
target_entity = "Inward rectifier potassium channel 2 (Mus musculus)"
assigned_class = "rule met"

[[record]]
molecule = "COc1ccccc1CSc1ncc(-c2ccc([N+](=O)[O-])cc2)[nH]1"
target_entity = "Inward rectifier potassium channel 2 (Mus musculus)"
assigned_class = "rule not met"

[[record]]
molecule = "O=C(NCC1CC1)c1onc(CSc2ccccc2)c1C(=O)NCC1CC1"
target_entity = "Inward rectifier potassium channel 2 (Mus musculus)"
assigned_class = "rule met"

[[record]]
molecule = "Cc1ccc(SC(C)C(=O)NCc2ccc(F)cc2)cc1 (centres undefined)"
target_entity = "Inward rectifier potassium channel 2 (Mus musculus)"
assigned_class = "rule met"

[[record]]
molecule = "CCOC(=O)c1c(NC(=O)CSc2nnc(C)c(=O)[nH]2)sc2c1CCC2"
target_entity = "Inward rectifier potassium channel 2 (Mus musculus)"
assigned_class = "rule not met"

[[record]]
molecule = "CC(=O)Nc1ccc(NC(=O)CSC2=NS(=O)(=O)c3ccccc3N2)cc1"
target_entity = "Inward rectifier potassium channel 2 (Mus musculus)"
assigned_class = "rule not met"

[[record]]
molecule = "Cc1ccc(-c2nn(-c3ccc(F)cc3)cc2C(=O)NCC(c2cccs2)N2CCOCC2)cc1 (centres undefined)"
target_entity = "Inward rectifier potassium channel 2 (Mus musculus)"
assigned_class = "rule not met"

[[record]]
molecule = "CCOC(=O)c1c(C)oc2cc(Sc3ccccc3)c(O)c(O)c12"
target_entity = "Inward rectifier potassium channel 2 (Mus musculus)"
assigned_class = "rule not met"

[[record]]
molecule = "Nc1ccccc1SCc1cc([N+](=O)[O-])cc2c1OCOC2"
target_entity = "Inward rectifier potassium channel 2 (Mus musculus)"
assigned_class = "rule met"

[[record]]
molecule = "COc1ccccc1NC(=O)Nc1nc(CC(=O)Nc2ccccc2F)cs1"
target_entity = "Inward rectifier potassium channel 2 (Mus musculus)"
assigned_class = "rule met"

[[record]]
molecule = "Cc1ccc(S(=O)(=O)N2CCN(C(=O)Cc3sc(C)nc3-c3ccc(F)cc3)CC2)c(C)c1"
target_entity = "Inward rectifier potassium channel 2 (Mus musculus)"
assigned_class = "rule not met"

[[record]]
molecule = "COc1ccc(C(CNCC(=O)Nc2ccccc2F)N(C)C)cc1 (centres undefined)"
target_entity = "Inward rectifier potassium channel 2 (Mus musculus)"
assigned_class = "rule met"

[[record]]
molecule = "S=C(Nc1ccc(Br)cc1Cl)NC1CCN(Cc2ccccc2)CC1"
target_entity = "Inward rectifier potassium channel 2 (Mus musculus)"
assigned_class = "rule met"

[[record]]
molecule = "S=C(Nc1ccc(Br)cc1)NC1CCN(Cc2ccccc2)CC1"
target_entity = "Inward rectifier potassium channel 2 (Mus musculus)"
assigned_class = "rule met"

[[record]]
molecule = "CC(O)C(NS(=O)(=O)c1ccc(Cl)cc1)C(=O)OCc1cc([N+](=O)[O-])cc2c1OCOC2 (centres undefined)"
target_entity = "Inward rectifier potassium channel 2 (Mus musculus)"
assigned_class = "rule met"


* * *

biological target: Inward rectifier potassium channel 2 (Mus musculus) (UniProt P35561); assay: blocks the mouse Kir2.1 inward-rectifier potassium channel (AID 1672); details: HEK293-Kir2.1, FluxOR thallium flux fluorescence; at 10 µM;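 note: channel flux triggered by added potassium and thallium sulfate stimulus; B-score of peak minus minimum fluorescence over baseline after thallium stimulus; more negative B-score means stronger Kir2.1 block with less thallium influx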
Sequence (P35561 whole entry, looked up): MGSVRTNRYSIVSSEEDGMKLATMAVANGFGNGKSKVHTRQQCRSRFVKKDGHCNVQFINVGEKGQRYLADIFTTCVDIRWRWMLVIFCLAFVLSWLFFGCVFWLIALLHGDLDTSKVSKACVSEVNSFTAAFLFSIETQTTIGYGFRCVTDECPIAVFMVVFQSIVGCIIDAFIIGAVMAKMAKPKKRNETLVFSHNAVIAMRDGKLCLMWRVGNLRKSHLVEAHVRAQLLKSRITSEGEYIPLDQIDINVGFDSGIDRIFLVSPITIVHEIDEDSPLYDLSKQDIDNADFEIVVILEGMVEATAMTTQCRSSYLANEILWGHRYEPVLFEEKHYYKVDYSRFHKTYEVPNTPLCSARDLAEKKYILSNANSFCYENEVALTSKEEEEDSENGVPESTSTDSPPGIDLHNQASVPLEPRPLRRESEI
Among all 310,000 compounds or so, about 2,600 (0.84%) were called active.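 How the source made its calls: active means fluorescence ratio B-score at or below minus 3 SD of library scores, with starting-brightness B-score within 2 SD (cut at about -4.2 in these data); inactive means the rest.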 For the sample, actives were picked, then their nearest neighbours and some compounds at random.
Outcomes: 1 (yes) for active, 0 (no) for inactive

[[record]]
molecule = "CCOc1ccc(C(C)=O)cc1COC(=O)CN1C(=O)NC2(CCCC2)C1=O"
assigned_class = "0 (no)"

[[record]]
molecule = "Cc1cc(NC(=O)CCS(=O)(=O)c2ccc(F)cc2)no1"
assigned_class = "0 (no)"

[[record]]
molecule = "Cc1nnc(SCC(=O)N2CCN(c3ccccc3)CC2)n1-c1ccccc1"
assigned_class = "0 (no)"

[[record]]
molecule = "COc1ccc(CCNC(=S)N2CCN(S(=O)(=O)c3ccc(F)cc3)CC2)cc1"
assigned_class = "0 (no)"

[[record]]
molecule = "CCOc1ccc(/C=C/C(=O)N(CC)CC(=O)NCc2cccs2)cc1OC"
assigned_class = "0 (no)"

[[record]]
molecule = "Cc1ccc(S(=O)(=O)N2CCC(C(=O)NCCC3=CCCCC3)CC2)cc1C"
assigned_class = "0 (no)"

[[record]]
molecule = "Cc1ccc(Nc2c3c(nc4ccccc24)CCC3)cc1"
assigned_class = "1 (yes)"

[[record]]
molecule = "O=S(=O)(O)Oc1c[nH]c2ccccc12"
assigned_class = "0 (no)"

[[record]]
molecule = "Nc1ccccc1SC(C[N+](=O)[O-])c1ccccc1 (stereo unspecified)"
assigned_class = "1 (yes)"

[[record]]
molecule = "Cc1nnc(SCC(=O)NCCOc2ccc(Cl)cc2)n1-c1ccccc1"
assigned_class = "0 (no)"

[[record]]
molecule = "N#Cc1cccc(Nc2c3c(nc4ccccc24)CCCC3)c1"
assigned_class = "0 (no)"

